Let's go through some pKi measurements on 5-hydroxytryptamine receptor 2C (Homo sapiens) together.
Sequence (P28335 whole entry): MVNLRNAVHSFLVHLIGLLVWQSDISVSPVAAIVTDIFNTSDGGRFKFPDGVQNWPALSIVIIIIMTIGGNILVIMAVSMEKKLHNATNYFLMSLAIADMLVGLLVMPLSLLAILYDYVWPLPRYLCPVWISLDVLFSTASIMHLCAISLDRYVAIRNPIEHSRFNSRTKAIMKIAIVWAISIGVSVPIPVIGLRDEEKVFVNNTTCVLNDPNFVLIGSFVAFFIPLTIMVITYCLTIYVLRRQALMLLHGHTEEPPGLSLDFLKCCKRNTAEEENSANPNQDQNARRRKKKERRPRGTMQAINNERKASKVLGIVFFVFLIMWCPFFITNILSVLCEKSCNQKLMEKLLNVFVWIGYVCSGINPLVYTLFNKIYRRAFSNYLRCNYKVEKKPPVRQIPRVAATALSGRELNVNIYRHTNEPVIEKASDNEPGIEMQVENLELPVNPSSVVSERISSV
Reminder that pKi means the negative base-10 logarithm of the concentration expressed in mol/L.

Solved entries (count: 3):
{"compound": "COc1ccc2[nH]cc(CCN)c2c1", "pKi": 6.03}
{"compound": "CC(O)C(C)OC(=O)C1CC2c3cccc4c3c(cn4C(C)C)CC2N(C)C1 (stereo unspecified)", "pKi": 7.51}
{"compound": "CC(CO)NC(=O)C1C=C2c3cccc4[nH]cc(c34)CC2N(C)C1 (stereo unspecified)", "pKi": 7.51}

Could you tell me which pKi is on file for CC(C)n1cc2c3c(cccc31)C1CC(C(=O)NC3CCCC3O)CN(C)C1C2 (stereo unspecified) ?
7.56

Repeat for the following compound: `Cc1ccc2[nH]cc(CCN)c2c1`
5.49

What about this compound? `NCCc1c[nH]c2ccc(Br)cc12`
5.82

Next record, please: CC(O)C(C)OC(=O)C1CC2c3cccc4[nH]cc(c34)CC2N(C)C1 (stereo unspecified)
8.48

Query `CC(C)n1cc(CCN)c2cc(Br)ccc21` next
5.20

Param item: `NCCc1c[nH]c2ccccc12`
5.52

Next record, please: `CC(C)n1cc(CCN)c2ccccc21`
5.15

Entry source: BindingDB's records for PubMed 8510008
